These data points were gathered from ChEMBL document CHEMBL3885881.

- Species on record: Rattus norvegicus
- test: DrugMatrix - Regimen: Daily Repeat
- Type: toxicity, organism-based, Sprague-Dawley
- Set-up: regimen Daily Repeat, gender Male, age 6-8 weeks
- recordedConditions: in vivo, po, 0 mg/kg, 72 h, tissue Plasma, route oral GAVAGE, dose level Control, time 3 day, vehicle 100 % WATER

>  <molecule>
Nc1ccc(S(=O)(=O)Nc2nccs2)cc1

>  <LACTATE DEHYDROGENASE / u/L>
171

$$$$
>  <molecule>
Cc1c(N(C)CS(=O)(=O)[O-])c(=O)n(-c2ccccc2)n1C.[Na+] [DIPYRONE SODIUM]

>  <LACTATE DEHYDROGENASE / u/L>
186.17

$$$$
>  <molecule>
CNS(=O)(=O)Cc1ccc2[nH]cc(CCN(C)C)c2c1

>  <LACTATE DEHYDROGENASE / u/L>
188.33

$$$$
>  <molecule>
O=P1(N(CCCl)CCCl)NCCCO1 (centres undefined) [CYCLOPHOSPHAMIDE ANHYDROUS]

>  <LACTATE DEHYDROGENASE / u/L>
147.83

$$$$
>  <molecule>
O=C(O)c1cccnc1

>  <LACTATE DEHYDROGENASE / u/L>
380.17

$$$$
>  <molecule>
OCCO

>  <LACTATE DEHYDROGENASE / u/L>
97.83

$$$$
>  <molecule>
CCOC(N)=O

>  <LACTATE DEHYDROGENASE / u/L>
230

$$$$
>  <molecule>
CN1C2CCCC1CC(NC(=O)c1nn(C)c3ccccc13)C2 (centres undefined)

>  <LACTATE DEHYDROGENASE / u/L>
171

$$$$
>  <molecule>
CC(C)(C)NC[C@H](O)COc1nsnc1N1CCOCC1

>  <LACTATE DEHYDROGENASE / u/L>
171

$$$$
>  <molecule>
CC[C@H]1OC(=O)[C@H](C)[C@@H](O[C@H]2C[C@@](C)(OC)[C@@H](O)[C@H](C)O2)[C@H](C)[C@@H](O[C@@H]2O[C@H](C)C[C@H](N(C)C)[C@H]2O)[C@](C)(OC)C[C@@H](C)C(=O)[C@H](C)[C@@H](O)[C@]1(C)O

>  <LACTATE DEHYDROGENASE / u/L>
101.5

$$$$
>  <molecule>
CCN(CC)CC#CCOC(=O)C(O)(c1ccccc1)C1CCCCC1 (centres undefined)

>  <LACTATE DEHYDROGENASE / u/L>
264.5

$$$$
>  <molecule>
CC[C@H]1OC(=O)[C@H](C)[C@@H](O[C@H]2C[C@@](C)(OC)[C@@H](O)[C@H](C)O2)[C@H](C)[C@@H](O[C@@H]2O[C@H](C)C[C@H](N(C)C)[C@H]2O)[C@](C)(O)C[C@@H](C)CN(C)[C@H](C)[C@@H](O)[C@]1(C)O

>  <LACTATE DEHYDROGENASE / u/L>
143.17

$$$$
>  <molecule>
CCCc1nn(C)c2c(=O)[nH]c(-c3cc(S(=O)(=O)N4CCN(C)CC4)ccc3OCC)nc12

>  <LACTATE DEHYDROGENASE / u/L>
97.83

$$$$
>  <molecule>
CCCCCCCCCCCCCCCC[n+]1ccccc1.[Br-]

>  <LACTATE DEHYDROGENASE / u/L>
301.83

$$$$

----------
- Organism: Rattus norvegicus
- test: DrugMatrix - Regimen: Daily Repeat
- Format: toxicity, organism-based, Sprague-Dawley
- Parameters: regimen Daily Repeat, gender Male, age 6-8 weeks
- recordedConditions: in vivo, po, 80 mg/kg, 120 h, tissue Blood, route oral GAVAGE, dose level Low, time 5 day, vehicle .5 % CMC

>  <chemicalStructure>
O=c1cc(-c2ccccc2)oc2ccc3ccccc3c12

>  <ABSOLUTE LYMPHOCYTE [cells/µL]>
9510

$$$$

----------
- Species: Rattus norvegicus
- test: DrugMatrix - Regimen: Daily Repeat
- Assay type: toxicity, organism-based, Sprague-Dawley
- Design: regimen Daily Repeat, gender Male, age 6-8 weeks
- recordedConditions: in vivo, po, 0 mg/kg, 72 h, tissue Plasma, route oral GAVAGE, dose level Control, time 3 day, vehicle 100 % SALINE
readoutName: BLOOD UREA NITROGEN (mg/dL)

>  <compound>
Cc1cc(CC(=O)O)n(C)c1C(=O)c1ccc(Cl)cc1 [ZOMEPIRAC]

>  <unitAnnotation>
mg/dL

>  <resultValue>
13.83

$$$$
>  <compound>
CC(=O)OCC(CCn1cnc2cnc(N)nc21)COC(C)=O

>  <unitAnnotation>
mg/dL

>  <resultValue>
14.17

$$$$
>  <compound>
Oc1ccccc1O

>  <unitAnnotation>
mg/dL

>  <resultValue>
13.83

$$$$
>  <compound>
CCCc1nn(C)c2c(=O)[nH]c(-c3cc(S(=O)(=O)N4CCN(C)CC4)ccc3OCC)nc12

>  <unitAnnotation>
mg/dL

>  <resultValue>
14.17

$$$$

----------
A collection of compounds and their measured LEUKOCYTE COUNT
- Organism: Rattus norvegicus
- test: DrugMatrix - Regimen: Daily Repeat
- Assay type: toxicity, organism-based, Sprague-Dawley
- Design: regimen Daily Repeat, gender Male, age 6-8 weeks
- recordedConditions: in vivo, po, 0 mg/kg, 72 h, tissue Blood, route oral GAVAGE, dose level Control, time 3 day, vehicle 100 % SALINE
readoutName: LEUKOCYTE COUNT (x10E3/uL)

>  <compound>
CC(=O)OCC(CCn1cnc2cnc(N)nc21)COC(C)=O [FAMCICLOVIR]

>  <readoutName>
LEUKOCYTE COUNT

>  <resultValue>
13.37

$$$$
>  <compound>
Oc1ccccc1O [CATECHOL]

>  <readoutName>
LEUKOCYTE COUNT

>  <resultValue>
18.63

$$$$
>  <compound>
Cc1cc(CC(=O)O)n(C)c1C(=O)c1ccc(Cl)cc1 [ZOMEPIRAC]

>  <readoutName>
LEUKOCYTE COUNT

>  <resultValue>
18.63

$$$$
>  <compound>
CCCc1nn(C)c2c(=O)[nH]c(-c3cc(S(=O)(=O)N4CCN(C)CC4)ccc3OCC)nc12

>  <readoutName>
LEUKOCYTE COUNT

>  <resultValue>
13.37

$$$$

----------
- Species: Rattus norvegicus
- test: DrugMatrix - Regimen: Daily Repeat
- Type: toxicity, organism-based, Sprague-Dawley
- Design: regimen Daily Repeat, gender Male, age 6-8 weeks
- recordedConditions: in vivo, po, 0 mg/kg, 120 h, tissue Plasma, route oral GAVAGE, dose level Control, time 5 day, vehicle .5 % CMC
Entries and their measured ASPARTATE AMINOTRANSFERASE follow.
readoutName: ASPARTATE AMINOTRANSFERASE

>  <compound>
C[C@@H](O)[C@H]1C(=O)N2C(C(=O)O)=C(S[C@@H]3CN[C@H](C(=O)N(C)C)C3)[C@H](C)[C@H]12 [MEROPENEM]

>  <resultValue>
76.5 u/L

$$$$
>  <compound>
CN1C(=O)CN=C(c2ccccc2)c2cc(Cl)ccc21 [DIAZEPAM]

>  <resultValue>
81.83 u/L

$$$$
>  <compound>
CC(C(=O)O)c1ccc(-c2ccccc2)c(F)c1 (stereo not drawn) [FLURBIPROFEN]

>  <resultValue>
76.5 u/L

$$$$
>  <compound>
Cc1cnc(C(=O)NCCc2ccc(S(=O)(=O)NC(=O)NC3CCCCC3)cc2)cn1 [GLIPIZIDE]

>  <resultValue>
94.67 u/L

$$$$
>  <compound>
CC(=O)O[C@]1(C(C)=O)CC[C@H]2[C@@H]3C=C(Cl)C4=CC(=O)[C@@H]5C[C@@H]5[C@]4(C)[C@H]3CC[C@@]21C [CYPROTERONE ACETATE]

>  <resultValue>
94.67 u/L

$$$$
>  <compound>
C=C(CC)C(=O)c1ccc(OCC(=O)O)c(Cl)c1Cl [ETHACRYNIC ACID]

>  <resultValue>
61.33 u/L

$$$$
>  <compound>
CCOC(=O)[C@H](CCc1ccccc1)N[C@@H](C)C(=O)N1Cc2ccccc2C[C@H]1C(=O)O

>  <resultValue>
94.67 u/L

$$$$
>  <compound>
COc1ccccc1OCC(O)COC(N)=O (stereo not drawn) [METHOCARBAMOL]

>  <resultValue>
89.67 u/L

$$$$

----------
- Species: Rattus norvegicus
- test: DrugMatrix - Regimen: Daily Repeat
- Type: toxicity, organism-based, Sprague-Dawley
- Parameters: regimen Daily Repeat, gender Male, age 6-8 weeks
- recordedConditions: in vivo, po, 0 mg/kg, 120 h, tissue Blood, route oral GAVAGE, dose level Control, time 5 day, vehicle 100 % WATER
readoutName: ABSOLUTE BASOPHIL (CELLS/uL)

>  <compound>
CCN(CC)CC#CCOC(=O)C(O)(c1ccccc1)C1CCCCC1 (configuration not stated) [OXYBUTYNIN]

>  <unitAnnotation>
CELLS/uL

>  <resultValue>
0

$$$$
>  <compound>
CCOC(N)=O

>  <unitAnnotation>
CELLS/uL

>  <resultValue>
0

$$$$
>  <compound>
Nc1ccc(S(=O)(=O)Nc2nccs2)cc1 [SULFATHIAZOLE]

>  <unitAnnotation>
CELLS/uL

>  <resultValue>
0

$$$$
>  <compound>
O=P1(N(CCCl)CCCl)NCCCO1 (configuration not stated) [CYCLOPHOSPHAMIDE ANHYDROUS]

>  <unitAnnotation>
CELLS/uL

>  <resultValue>
0

$$$$
>  <compound>
CC(C)(C)NC[C@H](O)COc1nsnc1N1CCOCC1 [TIMOLOL]

>  <unitAnnotation>
CELLS/uL

>  <resultValue>
0

$$$$
>  <compound>
O=C(O)c1cccnc1 [NIACIN]

>  <unitAnnotation>
CELLS/uL

>  <resultValue>
0

$$$$
>  <compound>
CN1C2CCCC1CC(NC(=O)c1nn(C)c3ccccc13)C2 (configuration not stated) [GRANISETRON]

>  <unitAnnotation>
CELLS/uL

>  <resultValue>
0

$$$$
